Where these numbers come from: ChEMBL document CHEMBL4145634

The listing below reports IC50 for compounds tested on Tyrosine-protein kinase JAK2 (Homo sapiens).
Sequence (O60674 whole entry): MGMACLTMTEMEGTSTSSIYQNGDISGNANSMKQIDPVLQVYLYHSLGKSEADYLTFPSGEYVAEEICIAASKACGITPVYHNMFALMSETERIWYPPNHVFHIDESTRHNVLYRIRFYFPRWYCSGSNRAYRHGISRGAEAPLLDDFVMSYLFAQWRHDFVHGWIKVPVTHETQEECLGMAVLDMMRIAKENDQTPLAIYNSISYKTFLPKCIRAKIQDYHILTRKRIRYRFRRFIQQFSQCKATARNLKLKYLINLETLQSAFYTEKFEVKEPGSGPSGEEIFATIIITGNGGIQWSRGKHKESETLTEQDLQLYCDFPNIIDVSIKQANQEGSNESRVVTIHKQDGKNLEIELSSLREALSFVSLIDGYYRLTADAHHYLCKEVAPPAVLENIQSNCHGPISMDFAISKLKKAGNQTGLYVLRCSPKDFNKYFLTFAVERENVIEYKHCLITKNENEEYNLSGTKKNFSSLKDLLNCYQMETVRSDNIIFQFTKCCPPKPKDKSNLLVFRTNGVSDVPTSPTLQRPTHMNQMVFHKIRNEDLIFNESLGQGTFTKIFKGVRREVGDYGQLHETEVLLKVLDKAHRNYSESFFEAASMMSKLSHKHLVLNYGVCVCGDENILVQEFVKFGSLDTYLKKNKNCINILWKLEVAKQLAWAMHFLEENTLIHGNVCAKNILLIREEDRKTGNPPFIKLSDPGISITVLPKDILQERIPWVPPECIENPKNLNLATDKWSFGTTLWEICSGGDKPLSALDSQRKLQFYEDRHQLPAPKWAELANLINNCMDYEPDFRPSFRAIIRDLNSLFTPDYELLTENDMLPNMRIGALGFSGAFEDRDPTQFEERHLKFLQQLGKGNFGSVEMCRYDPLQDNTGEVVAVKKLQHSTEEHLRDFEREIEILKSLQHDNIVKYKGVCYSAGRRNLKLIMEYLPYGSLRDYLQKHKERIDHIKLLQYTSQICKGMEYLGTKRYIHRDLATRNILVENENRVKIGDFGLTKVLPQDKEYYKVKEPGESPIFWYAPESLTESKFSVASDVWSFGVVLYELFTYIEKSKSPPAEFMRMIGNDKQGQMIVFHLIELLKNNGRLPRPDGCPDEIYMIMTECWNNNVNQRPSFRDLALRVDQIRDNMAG
measurement-label: IC50 (nM)

[
  {
    "test-smiles": "CS(=O)(=O)Nc1ccc(-c2ccnc(Nc3ccc(N4CCC(C(=O)NCCCCCCCC(=O)NO)CC4)cc3)n2)cc1",
    "study-target": "Tyrosine-protein kinase JAK2 (Homo sapiens)",
    "assay-value": 2
  },
  {
    "test-smiles": "CS(=O)(=O)Nc1ccc(-c2ccnc(Nc3ccc(N4CCC(C(=O)Nc5ccc(/C=C/C(=O)NO)cc5)CC4)cc3)n2)cc1",
    "study-target": "Tyrosine-protein kinase JAK2 (Homo sapiens)",
    "assay-value": 8
  },
  {
    "test-smiles": "N#CCNC(=O)c1ccc(-c2ccnc(Nc3ccc(N4CCC(C(=O)Nc5ccccc5N)CC4)cc3)n2)cc1",
    "study-target": "Tyrosine-protein kinase JAK2 (Homo sapiens)",
    "assay-value": 8
  },
  {
    "test-smiles": "CS(=O)(=O)Nc1ccc(-c2ccnc(Nc3ccc(N4CCC(C(=O)Nc5ccccc5N)CC4)cc3)n2)cc1",
    "study-target": "Tyrosine-protein kinase JAK2 (Homo sapiens)",
    "assay-value": 2
  },
  {
    "test-smiles": "CS(=O)(=O)Nc1ccc(-c2ccnc(Nc3ccc(N4CCC(C(=O)NCCCCCCC(=O)NO)CC4)cc3)n2)cc1",
    "study-target": "Tyrosine-protein kinase JAK2 (Homo sapiens)",
    "assay-value": 2
  },
  {
    "test-smiles": "CS(=O)(=O)Nc1ccc(-c2ccnc(Nc3ccc(N4CCC(C(=O)Nc5ccc(C(=O)NO)cc5)CC4)cc3)n2)cc1",
    "study-target": "Tyrosine-protein kinase JAK2 (Homo sapiens)",
    "assay-value": 2
  }
]
